Tested on: E. coli BL21 IMP-1, imipenem synergy, OD590, 18 h
Assay: growth inhibition synergy, IMP-1 E. coli with imipenem – E. coli BL21, powder samples, VIM-2 MBL inhibitor project, late-stage follow-up (AID 624097)
Calls of active or inactive are those of the source.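 The calls were made as follows: active = lowest compound dose that cuts the imipenem minimum inhibitory concentration fourfold is 10 µM or below; inactive = that dose above 10 µM or never reached.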
Select the matching outcome among active, inactive

CHEM_SMILES	TARGET_OR_TEST_SYSTEM	CLASS_ASSIGNMENT
O=C(CN1C(=O)/C(=C/c2c(Cl)ccc(Cl)c2Cl)SC1=S)NCc1ccccn1	E. coli BL21 IMP-1, imipenem synergy, OD590, 18 h	active
CN1CCN(C(=O)CN2C(=O)/C(=C/c3c(Cl)ccc(Cl)c3Cl)SC2=S)CC1	E. coli BL21 IMP-1, imipenem synergy, OD590, 18 h	active

Lab log entry: "CC(C)(C)OC(=O)N1CCN(NC(=O)CN2C(=O)/C(=C/c3c(Cl)ccc(Cl)c3Cl)SC2=S)CC1" — outcome as called in the assay?
active

Lab log entry: "O=C(CN1C(=O)/C(=C/c2c(Cl)ccc(Cl)c2Cl)SC1=S)NN1CCNCC1" — outcome as called in the assay?
inactive
